test: Water retention property test 1; assay type: physicochemical; settings: 80 wt % aqueous solution
Each item that follows carries a reported Water retention property test 1 Pre-test moisture rate.
Supply the numeric figure in %, leaving out any unit text.

Compound | Units Of Measure | Assay Result
C[N+](C)(C)CCO.O=C([O-])C=CC(=O)O | % | 20.0

// query Reported Water retention property test 1 Pre-test moisture rate for CC(O)C(=O)[O-].CCC(CO)(CO)[N+](CC(O)CO)(CC(O)CO)CC(O)CO (centres unmarked) : what is it?
// result 20.0

// query And for CCC(C)(CO)CO ?
// result 20.0

// query Also C[N+](C)(CCO)CC(O)CO.[Cl-] (centres unmarked) ?
// result 20.0

// query Try this compound too: C[N+](C)(C)CCO.O=C([O-])CCC(=O)O
// result 20.0
